Where do these numbers come from? They come from paper doi:10.1101/501064.

Target: T1, human Scribble PDZ3 domain (1005-1094) (human, UniProt Q14160 1005-1094)
T1 sequence (looked up): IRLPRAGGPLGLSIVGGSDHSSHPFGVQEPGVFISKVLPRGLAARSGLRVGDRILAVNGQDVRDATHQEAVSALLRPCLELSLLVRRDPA
Assay: ITC
Non-standard residues stand in square brackets, D forms with d. No end group written: not given here. pS = N[C@@H](COP(=O)(O)O)C(=O)O
propertyLabel: Kd (µM)

1. PHTNETDL [MCC_SD 8-mer peptide (Ser to Asp at position -1)] :: 3.4
2. PHTNETEL [MCC_SE 8-mer peptide (Ser to Glu at position -1)] :: 4.5
3. PHTNET[pS]L [phosphorylated MCC 8-mer peptide (phospho-Ser at position -1)] :: 3.7
4. PHTNETSL [MCC 8-mer peptide spanning the C-terminus (PDZ-binding motif) of human MCC] :: 5
